Values from ChEMBL document CHEMBL3885861

A collection of molecules and their measured Bas
# Species: Rattus norvegicus
# measurementNotes: Open TG-GATES - Regimen: Single
# Assay type: toxicity, organism-based, Sprague-Dawley
# Set-up: regimen Single, gender Male, age 6 weeks
# condition: in vivo, po, 0 mg/kg, 6 h, tissue Blood, route gavage, dose level Control
Dear colleague, please return just the value in %, with no unit written.

molecule	unitAbbreviation	assayResult
CN(CCOc1ccc(CC2SC(=O)NC2=O)cc1)c1ccccn1.O=C(O)/C=C\C(=O)O (centres undefined) [ROSIGLITAZONE MALEATE]	%	0
O=C(O)c1ccccc1Nc1ccccc1	%	0.4
CC(=O)[C@@]1(O)CC[C@H]2[C@@H]3C=C(Cl)C4=CC(=O)CC[C@]4(C)[C@H]3CC[C@@]21C	%	0
COc1ccc([C@@H]2Sc3ccccc3N(CCN(C)C)C(=O)[C@@H]2OC(C)=O)cc1	%	0
Nc1ccc(Cc2ccc(N)cc2)cc1	%	0

Item under review: CCCCNC(=O)NS(=O)(=O)c1ccc(C)cc1 [TOLBUTAMIDE] . Reported Bas?
0.2

Item under review: CN(C)CCCN1c2ccccc2Sc2ccc(Cl)cc21 . Reported Bas?
0

Item under review: NS(=O)(=O)c1cc(C(=O)O)c(NCc2ccco2)cc1Cl [FUROSEMIDE] . Reported Bas?
0

Item under review: CCO . Reported Bas?
0

====

# Organism: Rattus norvegicus
# measurementNotes: Open TG-GATES - Regimen: Single
# Assay type: toxicity, organism-based, Sprague-Dawley
# Set-up: regimen Single, gender Male, age 6 weeks
# condition: in vivo, po, 0 mg/kg, 6 h, tissue Blood, route gavage, dose level Control
observationType: RBC (x10_4/ul)
Dear colleague, please return just the value in x10_4/ul, with no unit written.

Item under review: CC(=O)[C@@]1(O)CC[C@H]2[C@@H]3C=C(Cl)C4=CC(=O)CC[C@]4(C)[C@H]3CC[C@@]21C [CHLORMADINONE] . Reported RBC?
643.6

====

# Species: Rattus norvegicus
# measurementNotes: Open TG-GATES - Regimen: Daily Repeat
# Assay type: toxicity, organism-based, Sprague-Dawley
# Parameters: regimen Daily Repeat, gender Male, age 6 weeks
# condition: in vivo, po, 300 mg/kg, […], tissue Plasma, route gavage, dose level Middle, time 7 day
A collection of compounds and their measured BUN
Dear colleague, please return just the value in mg/dL, with no unit written.

compound	unitAbbreviation	BUN
CC(S)C(=O)NCC(=O)O (centres undefined)	mg/dL	15.8

Item under review: CCCCNC(=O)NS(=O)(=O)c1ccc(C)cc1 [TOLBUTAMIDE] . Reported BUN?
16.6

Item under review: CC(=O)[C@@]1(O)CC[C@H]2[C@@H]3C=C(Cl)C4=CC(=O)CC[C@]4(C)[C@H]3CC[C@@]21C . Reported BUN?
19.4

Item under review: O=C(O)c1ccccc1Nc1ccccc1 . Reported BUN?
26.8

====

# Species on record: Rattus norvegicus
# measurementNotes: Open TG-GATES - Regimen: Daily Repeat
# Format: toxicity, organism-based, Sprague-Dawley
# Set-up: regimen Daily Repeat, gender Male, age 6 weeks
# condition: in vivo, po, 100 mg/kg, […], tissue Blood, route gavage, dose level Low, time 14 day
observationType: Neu (%)
Dear colleague, please return just the value in %, with no unit written.

molecule	unitAbbreviation	Neu
O=C(O)c1ccccc1Nc1ccccc1 [FENAMIC ACID]	%	20.2
CC(=O)[C@@]1(O)CC[C@H]2[C@@H]3C=C(Cl)C4=CC(=O)CC[C@]4(C)[C@H]3CC[C@@]21C [CHLORMADINONE]	%	14.6
CC(S)C(=O)NCC(=O)O (centres undefined) [TIOPRONIN]	%	15.4

Item under review: CCCCNC(=O)NS(=O)(=O)c1ccc(C)cc1 [TOLBUTAMIDE] . Reported Neu?
15.8

====

# Species on record: Rattus norvegicus
# measurementNotes: Open TG-GATES - Regimen: Single
# Type: toxicity, organism-based, Sprague-Dawley
# Parameters: regimen Single, gender Male, age 6 weeks
# condition: in vivo, po, 0 mg/kg, 24 h, tissue Blood, route gavage, dose level Control
observationType: WBC (x10_2/uL)
Dear colleague, please return just the value in x10_2/uL, with no unit written.

Solved entries:
molecule	WBC (x10_2/uL)
Nc1ccc(Cc2ccc(N)cc2)cc1	88.9
NS(=O)(=O)c1cc(C(=O)O)c(NCc2ccco2)cc1Cl [FUROSEMIDE]	104.1
CCCCNC(=O)NS(=O)(=O)c1ccc(C)cc1 [TOLBUTAMIDE]	89

Item under review: C=C[C@H]1C[N@@]2CC[C@H]1C[C@@H]2[C@@H](O)c1ccnc2ccc(OC)cc12 . Reported WBC?
90.9

====

# Species on record: Rattus norvegicus
# measurementNotes: Open TG-GATES - Regimen: Single
# Assay type: toxicity, organism-based, Sprague-Dawley
# Design: regimen Single, gender Male, age 6 weeks
# condition: in vivo, po, 0 mg/kg, 24 h, tissue Plasma, route gavage, dose level Control
A collection of molecules and their measured gamma-GTP

Solved entries:
molecule	gamma-GTP
CN(C/C=C/C#CC(C)(C)C)Cc1cccc2ccccc12	1.6 IU/L
O=c1ccc2ccccc2o1	1.2 IU/L
CC(S)C(=O)NCC(=O)O (stereo not given)	1.4 IU/L
CN(C)CCCN1c2ccccc2Sc2ccc(Cl)cc21	1 IU/L

Shifting focus to the molecule that follows.
Item under review: C=C[C@H]1C[N@@]2CC[C@H]1C[C@@H]2[C@@H](O)c1ccnc2ccc(OC)cc12 . Reported gamma-GTP?
1.6 IU/L

====

A collection of molecules and their measured Hb
# Species on record: Rattus norvegicus
# measurementNotes: Open TG-GATES - Regimen: Daily Repeat
# Format: toxicity, organism-based, Sprague-Dawley
# Set-up: regimen Daily Repeat, gender Male, age 6 weeks
# condition: in vivo, po, 300 mg/kg, […], tissue Blood, route gavage, dose level Middle, time 28 day
Dear colleague, please return just the value in g/dL, with no unit written.

molecule	unitAbbreviation	Hb
O=C(O)c1ccccc1Nc1ccccc1	g/dL	14.8
CC(=O)[C@@]1(O)CC[C@H]2[C@@H]3C=C(Cl)C4=CC(=O)CC[C@]4(C)[C@H]3CC[C@@]21C	g/dL	16.2
CCCCNC(=O)NS(=O)(=O)c1ccc(C)cc1 [TOLBUTAMIDE]	g/dL	15.4

Shifting focus to the molecule that follows.
Item under review: CC(S)C(=O)NCC(=O)O (centres undefined) . Reported Hb?
15.4

====

# Species on record: Rattus norvegicus
# measurementNotes: Open TG-GATES - Regimen: Daily Repeat
# Type: toxicity, organism-based, Sprague-Dawley
# Design: regimen Daily Repeat, gender Male, age 6 weeks
# condition: in vivo, po, 100 mg/kg, […], tissue Blood, route gavage, dose level Low, time 7 day
A collection of molecules and their measured PT
Dear colleague, please return just the value in s, with no unit written.

molecule	assayResult
CCCCNC(=O)NS(=O)(=O)c1ccc(C)cc1 [TOLBUTAMIDE]	12.5
CC(S)C(=O)NCC(=O)O (centres undefined) [TIOPRONIN]	15.8
CC(=O)[C@@]1(O)CC[C@H]2[C@@H]3C=C(Cl)C4=CC(=O)CC[C@]4(C)[C@H]3CC[C@@]21C [CHLORMADINONE]	15.2

Item under review: O=C(O)c1ccccc1Nc1ccccc1 [FENAMIC ACID] . Reported PT?
13.9

====

A collection of compounds and their measured Bas
# Species: Rattus norvegicus
# measurementNotes: Open TG-GATES - Regimen: Daily Repeat
# Format: toxicity, organism-based, Sprague-Dawley
# Parameters: regimen Daily Repeat, gender Male, age 6 weeks
# condition: in vivo, po, 1000 mg/kg, […], tissue Blood, route gavage, dose level High, time 14 day
Dear colleague, please return just the value in %, with no unit written.

Solved entries:
compound	Bas / %
CC(=O)[C@@]1(O)CC[C@H]2[C@@H]3C=C(Cl)C4=CC(=O)CC[C@]4(C)[C@H]3CC[C@@]21C	0
CCCCNC(=O)NS(=O)(=O)c1ccc(C)cc1 [TOLBUTAMIDE]	0.4
O=C(O)c1ccccc1Nc1ccccc1	0.7

Shifting focus to the compound that follows.
Item under review: CC(S)C(=O)NCC(=O)O (centres undefined) . Reported Bas?
0

====

# Organism: Rattus norvegicus
# measurementNotes: Open TG-GATES - Regimen: Daily Repeat
# Type: toxicity, organism-based, Sprague-Dawley
# Design: regimen Daily Repeat, gender Male, age 6 weeks
# condition: in vivo, po, 1000 mg/kg, […], tissue Plasma, route gavage, dose level High, time 7 day
A collection of compounds and their measured LDH
Dear colleague, please return just the value in IU/L, with no unit written.

Solved entries:
compound	LDH, IU/L
O=C(O)c1ccccc1Nc1ccccc1 [FENAMIC ACID]	117
CC(S)C(=O)NCC(=O)O (centres undefined) [TIOPRONIN]	181.4
CCCCNC(=O)NS(=O)(=O)c1ccc(C)cc1 [TOLBUTAMIDE]	55.8

Shifting focus to the compound that follows.
Item under review: CC(=O)[C@@]1(O)CC[C@H]2[C@@H]3C=C(Cl)C4=CC(=O)CC[C@]4(C)[C@H]3CC[C@@]21C [CHLORMADINONE] . Reported LDH?
194
